I'd appreciate it if you could supply pIC50 values for the items below.
SUBJECT_OF_TEST: human recombinant HDAC6 (Homo sapiens, UniProt Q9UBN7)
Sequence (Q9UBN7 whole entry): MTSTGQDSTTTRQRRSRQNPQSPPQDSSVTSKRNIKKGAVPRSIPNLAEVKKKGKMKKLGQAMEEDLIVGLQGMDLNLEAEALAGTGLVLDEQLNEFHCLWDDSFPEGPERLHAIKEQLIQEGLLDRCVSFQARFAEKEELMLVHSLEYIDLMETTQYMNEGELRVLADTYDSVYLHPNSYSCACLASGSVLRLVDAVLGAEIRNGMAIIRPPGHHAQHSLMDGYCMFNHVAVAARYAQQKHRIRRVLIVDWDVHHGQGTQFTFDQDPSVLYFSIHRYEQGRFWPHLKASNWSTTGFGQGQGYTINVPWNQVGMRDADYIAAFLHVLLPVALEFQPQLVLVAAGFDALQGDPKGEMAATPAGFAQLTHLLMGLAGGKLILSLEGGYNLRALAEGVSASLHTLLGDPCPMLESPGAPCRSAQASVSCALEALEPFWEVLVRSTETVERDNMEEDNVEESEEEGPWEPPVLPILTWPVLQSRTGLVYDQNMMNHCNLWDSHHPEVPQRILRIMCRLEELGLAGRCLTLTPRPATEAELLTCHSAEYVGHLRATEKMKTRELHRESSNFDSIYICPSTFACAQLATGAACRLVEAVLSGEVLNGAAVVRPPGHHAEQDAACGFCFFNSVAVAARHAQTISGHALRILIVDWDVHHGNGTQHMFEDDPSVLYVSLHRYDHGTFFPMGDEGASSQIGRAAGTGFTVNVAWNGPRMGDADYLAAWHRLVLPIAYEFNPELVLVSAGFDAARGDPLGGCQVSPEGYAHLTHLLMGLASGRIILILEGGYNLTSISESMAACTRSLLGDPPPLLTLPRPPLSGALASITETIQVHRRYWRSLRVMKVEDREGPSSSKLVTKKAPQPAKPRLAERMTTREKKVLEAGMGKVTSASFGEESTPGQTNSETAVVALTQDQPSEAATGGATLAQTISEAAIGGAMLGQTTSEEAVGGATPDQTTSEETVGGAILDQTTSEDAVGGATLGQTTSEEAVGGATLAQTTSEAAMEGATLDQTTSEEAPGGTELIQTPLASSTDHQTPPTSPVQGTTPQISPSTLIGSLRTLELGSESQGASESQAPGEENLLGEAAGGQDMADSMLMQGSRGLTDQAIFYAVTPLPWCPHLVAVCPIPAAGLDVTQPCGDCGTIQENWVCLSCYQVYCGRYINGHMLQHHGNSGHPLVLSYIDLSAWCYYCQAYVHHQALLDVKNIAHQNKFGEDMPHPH
ASSAY_PROTOCOL: In vitro histone deacetylase assay: enzymatic HDAC6 electrophoretic mobility shift assay
Format: biochemical
PARTICULARS: full length human recombinant HDAC6 1 nM, 2 μM peptide substrate RHKK(Ac)-NH2, 25° C.; read-out: Inhibitory Concentration (IC50) against HDAC6, Activity Range
pIC50: −log10 of the molar value.

Could you share which pIC50 value was measured for O=C(NO)c1ccc2c(c1)OC[C@H](c1ccccc1)N(C(=O)NC1CCCCC1)C2 ?
≥ 7.00

What do we get for O=C(NO)c1ccc2c(c1)OC[C@@H](c1ccccc1)N(c1ccccc1)C2 ?
6.30 to 7.00

What do we get for O=C(NO)c1ccc2c(c1)OC[C@H](c1ccccc1)N(C(=O)N1CCCC1)C2 ?
≥ 7.00

What do we get for O=C(NO)c1ccc2c(c1)OC[C@@H](c1cccnc1)N(C(=O)N1CCOCC1)C2 (single isomer, unassigned) ?
< 6.30

What do we get for O=C(NO)c1ccc2c(c1)OC[C@H](c1ccccc1)N(C(=O)Nc1ccccc1)C2 ?
≥ 7.00
